// provenance: PubChem BioAssay

Below, each of the compounds is paired with its reported composite z-score value.
Test system: Wnt5a (protein binding on small-molecule microarray)
Assay: Wnt5a binders on small-molecule microarray, primary screen, biophysical, 635/667 nm fluorescence (AID 1142);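 note: fluorescence read at 667 nm with signal to noise per printed feature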
Conditions: 635 nm fluorescence, higher = more signal
Keep it simple and answer with nothing but the number.

CN1C(=O)C2C=CC(C(O)Cc3ccccc3)N(Nc3ccccc3)C2C1=O (stereo not given) : -0.0943
COc1ccc(CCNC(=O)[C@@H]2c3ccccc3C(=O)N(C3Cc4ccccc4C3)[C@H]2c2ccc(CO)cc2)cc1 : -0.062
COCCOC(=O)N1C(=O)[C@@]2(c3cc(C#CCCO)ccc31)[C@H](c1ccc(OCCO)cc1)N1[C@H](c3ccccc3)[C@H](c3ccccc3)OC(=O)[C@H]1[C@@H]2C(=O)N1CCN(c2ncccn2)CC1 : -0.0738
C=C(CCCC)C(=O)CC[C@@H](OC(=O)c1cccnc1)c1ccc(CO)o1 : 0.314

Note: attention shifts to another entry.
Req: # input compound: `C=CCNC(=O)[C@@H]1[C@H]2C(=O)O[C@H](c3ccccc3)[C@H](c3ccccc3)N2[C@H](c2ccccc2OCCO)[C@@]12C(=O)N(C(=O)OCCOC)c1ccc(C#CCNC(N)=O)cc12` ; wanted: its composite z-score
Resp: 0.0308
